Test system: c-Src
test.description: phosphorylation enrichment, bacterial display (enrichment ratio); higher = better substrate or ligand; peptides without Tyr show the background
measured.property: phosphorylation enrichment

biosequence: HQIQSYTCEID [DES_Y331]
measured.property: phosphorylation enrichment
result: 0.502
--
biosequence: HLNLTYRILSF [MMP23B_Y95_F91L]
measured.property: phosphorylation enrichment
result: 0.491
--
biosequence: DLAGRYYALRS [CKB_Y173_K177R]
measured.property: phosphorylation enrichment
result: 0.487

###

Tested on: c-Abl (mouse)
test.description: phosphorylation enrichment, bacterial display (enrichment ratio); higher = better substrate or ligand; peptides without Tyr show the background
Field: class. Source value: phosphorylation enrichment. Ranges: low-valued (below 0.6), mid-valued (0.6 to below 0.8), high-valued (0.8 or more)

biosequence: REIIAYQPYGK [PRKCG_Y529_P524R]
classification: low-valued

biosequence: SNKLTYGTMVF [ACOX1_Y275]
classification: high-valued

biosequence: WLQKLYNNFVN [MYO5C_Y526]
classification: high-valued

biosequence: LSSLAYSGKDA [FXN_Y205]
classification: high-valued

biosequence: FSLPAFMDRRD [COX4I1_Y38_Y38F]
classification: low-valued

biosequence: DLAGRYYALKS [CKB_Y173]
classification: low-valued

biosequence: LQLLGYRPVYS [CHST6_Y358]
classification: high-valued

biosequence: IKNFKYGIEEH [GJA1_Y137_K134N]
classification: low-valued

biosequence: LAGRYYALRSM [CKB_Y174_K177R]
classification: mid-valued

biosequence: TDECEYDELIV [TGM1_Y136_Y134C]
classification: mid-valued

biosequence: VEGIGYDFIPT [CBS_Y308]
classification: mid-valued

biosequence: VLTSKYRGGGG [HBA1_Y141]
classification: low-valued

biosequence: SFPPTYRYERG [INPPL1_Y661]
classification: low-valued

biosequence: HTLMKYTDGDQ [PUS7L_Y94_I92M]
classification: high-valued

biosequence: KALKQYRAGPS [DDX27_Y763]
classification: low-valued

biosequence: EEVPLYESATT [DCC_Y809_G805E]
classification: high-valued

biosequence: EGELRYMHSRV [ABCD1_Y281_K276E]
classification: low-valued

biosequence: SLRAHYDTPRS [DOK7_Y405]
classification: low-valued

biosequence: LTYHMYADPNF [SOS1_Y618]
classification: high-valued

###

target.of.assay: SHP2-C SH2;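 further: peptide library displayed on the E. coli surface as eCPX fusions, selected cells deep-sequenced, score is each peptide's frequency after selection divided by its frequency in the input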
test.description: SH2 binding enrichment of the phosphorylated peptide, bacterial display (enrichment ratio); higher = better substrate or ligand; peptides without Tyr show the background

biosequence: QTEAEYRFIYM [PTPN11_Y511_Q510E]
SH2 binding enrichment: 0.553

biosequence: PNQRRYVFFFS [PTEN_Y174_S170N_YF]
SH2 binding enrichment: 1.88

biosequence: DPADRYLIEQC [CDKL5_Y286_T288I]
SH2 binding enrichment: 0.67

biosequence: GKSFIYAAFHA [KCNT1_Y563_T562I]
SH2 binding enrichment: 1

biosequence: SVCPDYDLCSI [SQSTM1_Y148_V153I]
SH2 binding enrichment: 0.733

biosequence: DLDPNYVVSSR [CKM_Y125_L127V]
SH2 binding enrichment: 0.787

biosequence: CEHFSYYGMKA [SLC15A2_Y60_R57H]
SH2 binding enrichment: 0.661

biosequence: NLVSEYQQFQD [TUBB3_Y422_D417N_YF]
SH2 binding enrichment: 0.673

biosequence: ASGKYYAMKIL [AKT3_Y174]
SH2 binding enrichment: 0.941

biosequence: TVHCDYLNIPH [TAF1L_Y1385]
SH2 binding enrichment: 0.676

biosequence: PTFKHYANSTQ [SLC12A3_Y70_E68K_YF]
SH2 binding enrichment: 0.499

biosequence: FDEFRYRSVIK [CFTR_Y517_YF]
SH2 binding enrichment: 0.527

biosequence: GTFVIYVRFSG [FLNB_Y1687_G1691S_YF]
SH2 binding enrichment: 0.812

biosequence: RHPYFYAPELL [ALB_Y174]
SH2 binding enrichment: 0.891

biosequence: KYLENYLNRLL [PLD2_Y169]
SH2 binding enrichment: 1.44

Source of measurements: the supplement of paper PMC10065799
